- testSystem: UniProt:P12822
- Sequence (P12822 34-1310): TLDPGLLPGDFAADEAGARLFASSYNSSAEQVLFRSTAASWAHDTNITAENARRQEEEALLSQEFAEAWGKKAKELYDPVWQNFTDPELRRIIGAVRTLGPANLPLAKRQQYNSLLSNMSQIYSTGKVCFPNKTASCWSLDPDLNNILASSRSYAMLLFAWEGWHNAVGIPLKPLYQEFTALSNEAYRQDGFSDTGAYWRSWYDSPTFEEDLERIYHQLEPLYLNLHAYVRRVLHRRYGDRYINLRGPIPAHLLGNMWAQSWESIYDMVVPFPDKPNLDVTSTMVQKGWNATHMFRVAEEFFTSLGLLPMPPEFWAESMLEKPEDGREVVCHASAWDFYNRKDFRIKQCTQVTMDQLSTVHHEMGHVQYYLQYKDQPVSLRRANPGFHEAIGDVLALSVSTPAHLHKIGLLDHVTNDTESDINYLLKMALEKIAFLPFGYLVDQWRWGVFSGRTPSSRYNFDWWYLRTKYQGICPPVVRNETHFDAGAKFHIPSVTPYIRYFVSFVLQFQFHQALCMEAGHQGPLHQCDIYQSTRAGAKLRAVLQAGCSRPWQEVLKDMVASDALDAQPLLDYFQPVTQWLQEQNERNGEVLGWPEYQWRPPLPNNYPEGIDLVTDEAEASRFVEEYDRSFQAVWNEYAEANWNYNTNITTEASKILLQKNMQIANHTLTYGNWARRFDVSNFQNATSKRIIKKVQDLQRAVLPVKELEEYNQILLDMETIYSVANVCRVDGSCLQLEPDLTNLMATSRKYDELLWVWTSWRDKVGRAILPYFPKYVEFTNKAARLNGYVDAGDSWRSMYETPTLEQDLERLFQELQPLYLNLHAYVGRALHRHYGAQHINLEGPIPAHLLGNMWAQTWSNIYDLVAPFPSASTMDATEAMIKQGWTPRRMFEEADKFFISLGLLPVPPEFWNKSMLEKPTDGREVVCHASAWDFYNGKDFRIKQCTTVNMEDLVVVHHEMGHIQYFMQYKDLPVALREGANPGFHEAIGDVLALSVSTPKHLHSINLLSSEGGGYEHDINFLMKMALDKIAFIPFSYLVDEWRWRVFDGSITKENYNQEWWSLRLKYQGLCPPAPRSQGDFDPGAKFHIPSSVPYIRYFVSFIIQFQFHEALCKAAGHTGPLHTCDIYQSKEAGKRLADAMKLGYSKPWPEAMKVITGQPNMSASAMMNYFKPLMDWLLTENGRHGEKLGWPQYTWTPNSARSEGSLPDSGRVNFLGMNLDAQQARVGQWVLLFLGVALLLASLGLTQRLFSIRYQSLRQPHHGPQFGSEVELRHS
- assayExplanation: Inhibition of Angiotensin I Converting Enzyme (ACE), substrate hippuryl-L-histidyl-L-leucine (HHL), hippuric acid produced
- Type: biochemical
- details: Concentration 1 μM, pH 8.3, 37° C., one hour, read-out: Inhibitory Activity on ACE
Counter-ions that a name gives are not always drawn.
Exercise: state measured inhibition at 1 µM for each of the compounds provided.
The answer is to be given in %; state only the numeric part.

Need inhibition at 1 µM of `C[C@H](N[C@@H](CCc1ccccc1)C(=O)O)C(=O)N(CC(=O)O)C1Cc2ccccc2C1` , thanks.
95

Sample CCOC(=O)C(CCc1ccccc1)N[C@@H](C)C(=O)N(CC(=O)O)C1Cc2ccccc2C1.Cl (some centres unmarked) [Example 1, hydrochloride] — what was its inhibition at 1 µM?
87

Param item = CC(C)OC(=O)C(CCc1ccccc1)N[C@@H](C)C(=O)N(CC(=O)O)C1Cc2ccccc2C1.Cl (some centres unmarked) [Example 9, hydrochloride] ; retrieve measured inhibition at 1 µM.
72

Any idea what inhibition at 1 µM was measured for CCCOC(=O)C(CCc1ccccc1)N[C@@H](C)C(=O)N(CC(=O)O)C1Cc2ccccc2C1.Cl (some centres unmarked) [Example 7, hydrochloride] ?
91

What value of inhibition at 1 µM has been recorded for this entry: CCCCOC(=O)C(CCc1ccccc1)N[C@@H](C)C(=O)N(CC(=O)O)C1Cc2ccccc2C1 (some centres unmarked) [Example 8, hydrochloride]
69

* * *

- testSystem: UniProtKB P12822
- assayExplanation: Inhibition of Angiotensin I Converting Enzyme (ACE), substrate hippuryl-L-histidyl-L-leucine (HHL), hippuric acid produced
- Type: biochemical
- details: Concentration 10 μM, pH 8.3, 37° C., one hour, read-out: Inhibitory Activity on ACE
Where a name gives a salt, the structure may show the parent alone.
Please respond with reported inhibition at 10 µM for every item in the list.
// note: answer is a bare numeric in %

Need inhibition at 10 µM of C[C@H](N[C@@H](CCc1ccccc1)C(=O)O)C(=O)N(CC(=O)O)C1Cc2ccccc2C1 [Example 19] , thanks.
98

Looking for the measured inhibition at 10 µM of CCCOC(=O)C(CCc1ccccc1)N[C@@H](C)C(=O)N(CC(=O)O)C1Cc2ccccc2C1.Cl (some centres unmarked) [Example 7, hydrochloride] , can you help?
97

Look up inhibition at 10 µM: CC(C)OC(=O)C(CCc1ccccc1)N[C@@H](C)C(=O)N(CC(=O)O)C1Cc2ccccc2C1.Cl (some centres unmarked) [Example 9, hydrochloride]
95

Which measured inhibition at 10 µM value corresponds to CCOC(=O)C(CCc1ccccc1)N[C@@H](C)C(=O)N(CC(=O)O)C1Cc2ccccc2C1.Cl (some centres unmarked) [Example 1, hydrochloride] ?
97

Fill in: inhibition at 10 µM of CCCCOC(=O)C(CCc1ccccc1)N[C@@H](C)C(=O)N(CC(=O)O)C1Cc2ccccc2C1 (some centres unmarked) [Example 8, hydrochloride] is ___
99

These entries and their values trace back to patent US4822818A.
